Some compounds, each annotated with its measured MIC P. aeruginosa PA14.
System: P. aeruginosa PA14
Details: Table S3; […] MH at pH 8.5, 16-20 hours at 37 °C
Where a SMILES comes first, the peptide text is derived from it. [ ]: non-standard residue; d: D form. Nleu = CC(C)CNCC(=O)O; Nlys = NCCCCNCC(=O)O
Give a bare numeral; the unit µg/mL is implied.

{"columns": ["compound", "measurement_target", "MIC P. aeruginosa PA14 (µg/mL)"],
 "data": [
  ["CC(C)C[C@H](NC(=O)CN(CC(C)C)C(=O)[C@H](CCCCN)NC(=O)CNCCCCN)C(=O)N(CCCCN)CC(=O)N[C@@H](CC(C)C)C(=O)N(CC(=O)N[C@@H](CCCCN)C(=O)N(CC(=O)N[C@@H](CC(C)C)C(=O)N(CC(N)=O)CC(C)C)CC(C)C)CC(C)C [EB10, kKlLkLlKlLl] (H-[Nlys]K[Nleu]L[Nlys]L[Nleu]K[Nleu]L[Nleu]-NH2)", "P. aeruginosa PA14", 4],
  ["CC(C)C[C@H](NC(=O)[C@H](CC(C)C)NC(=O)[C@H](CCCCN)NC(=O)[C@@H](N)CCCCN)C(=O)N[C@@H](CCCCN)C(=O)N[C@@H](CC(C)C)C(=O)N[C@@H](CC(C)C)C(=O)N[C@@H](CCCCN)C(=O)N(CC(=O)N(CC(=O)N(CC(N)=O)CC(C)C)CC(C)C)CC(C)C [EB3] (H-KKLLKLLK[Nleu][Nleu][Nleu]-NH2)", "P. aeruginosa PA14", 4],
  ["CC(C)C[C@H](NC(=O)[C@H](CCCCN)NC(=O)[C@@H](N)CCCCN)C(=O)N[C@@H](CC(C)C)C(=O)N[C@@H](CCCCN)C(=O)N(CC(=O)N(CC(=O)N(CCCCN)CC(=O)N(CC(=O)N(CC(=O)N(CC(N)=O)CC(C)C)CC(C)C)CC(C)C)CC(C)C)CC(C)C [EB4, KKLLKllklll] (H-KKLLK[Nleu][Nleu][Nlys][Nleu][Nleu][Nleu]-NH2)", "P. aeruginosa PA14", 4]
]}

Consider the additional compound presented here.
The reported value for CC(C)C[C@H](NC(=O)CN(CC(C)C)C(=O)[C@H](CC(C)C)NC(=O)CN(CCCCN)C(=O)[C@H](CC(C)C)NC(=O)CN(CC(C)C)C(=O)[C@H](CCCCN)NC(=O)CN(CC(C)C)C(=O)[C@H](CC(C)C)NC(=O)CN(CCCCN)C(=O)[C@@H](N)CCCCN)C(N)=O [EB9, KkLlKlLkLlL] (H-K[Nlys]L[Nleu]K[Nleu]L[Nlys]L[Nleu]L-NH2) in terms of MIC P. aeruginosa PA14 is 2
